# TGI per record follows
- System: HCT-15 colon
- TEST_DETAILS: NCI tumour cell line growth inhibition, 48 h

Example entries and their recorded answers appear below.
[
  {
    "COMPOUND": "CCOC(=O)N1c2c(c3ccccc3n2C(=O)OCC)C(=O)C(OC)N1C(=O)OCC (centres undefined)",
    "MEASURE_NAME": "TGI",
    "ENDPOINT_RESULT": "79 µM"
  },
  {
    "COMPOUND": "NS(=O)(=O)c1ccc(NS(=O)(=O)c2ccc(NC(=O)N(c3ccccc3)c3ccccc3)cc2)cc1",
    "MEASURE_NAME": "TGI",
    "ENDPOINT_RESULT": "> 100 µM"
  },
  {
    "COMPOUND": "COC(=O)C1=C(C)NC(C)=C(C(=O)OC)C1c1ccccc1[N+](=O)[O-]",
    "MEASURE_NAME": "TGI",
    "ENDPOINT_RESULT": "> 100 µM"
  },
  {
    "COMPOUND": "Cc1c(-c2ccnc(N)n2)c2c(n1-c1ccccc1)C(=O)c1ccccc1C2=O",
    "MEASURE_NAME": "TGI",
    "ENDPOINT_RESULT": "> 100 µM"
  },
  {
    "COMPOUND": "C/C(=N/OCCC(=O)O)C1CC1",
    "MEASURE_NAME": "TGI",
    "ENDPOINT_RESULT": "> 100 µM"
  },
  {
    "COMPOUND": "COc1ccc(OC)c(/C=C/C(=O)c2ccc(SC)cc2)c1",
    "MEASURE_NAME": "TGI",
    "ENDPOINT_RESULT": "36.6 µM"
  },
  {
    "COMPOUND": "C/C(=N\\Nc1nc2ccccc2n1C)c1ccncn1",
    "MEASURE_NAME": "TGI",
    "ENDPOINT_RESULT": "> 88.1 µM"
  },
  {
    "COMPOUND": "CN(C)CC1CCCCCCCCCCC1=O (centres undefined)",
    "MEASURE_NAME": "TGI",
    "ENDPOINT_RESULT": "> 100 µM"
  },
  {
    "COMPOUND": "N#CC(NNC(=O)c1c(Cl)c(Cl)c(Cl)c(Cl)c1-c1nc2ccc(C(=O)c3ccccc3)cc2[nH]1)c1cccc(Oc2ccccc2)c1 (centres undefined)",
    "MEASURE_NAME": "TGI",
    "ENDPOINT_RESULT": "53.3 µM"
  },
  {
    "COMPOUND": "CC(C)=CCCC1(C)C=Cc2c(ccc3c2[nH]c2cc(O)c(C)cc23)O1 (centres undefined)",
    "MEASURE_NAME": "TGI",
    "ENDPOINT_RESULT": "10.8 µM"
  }
]

Task: Value lookup for TGI; key = Cc1cnc2cc(Cl)ccc2c1SCC(=O)O
Result: > 100 µM

Task: Subsequent entry: COc1cc2c3c4[n+](cc2c(OC)c1OC)CCC4CCC3 (centres undefined)
Result: > 100 µM

Task: Subsequent entry: O=C(c1cccs1)N(C(=O)N1CCCCC1)c1ccccc1
Result: > 100 µM

Task: Follow-up item: COc1cc(C2CC(c3cc(Cl)c(C)cc3O)=NN2c2ccc(S(N)(=O)=O)cc2)cc(OC)c1OC (centres undefined)
Result: 11.8 µM
